Biological target: Retinoic acid receptor alpha [200-419]/gamma [183-417] (Homo sapiens, UniProt P10276+P13631)
Construct: 200-419; 183-417
Sequence (P13631 whole entry): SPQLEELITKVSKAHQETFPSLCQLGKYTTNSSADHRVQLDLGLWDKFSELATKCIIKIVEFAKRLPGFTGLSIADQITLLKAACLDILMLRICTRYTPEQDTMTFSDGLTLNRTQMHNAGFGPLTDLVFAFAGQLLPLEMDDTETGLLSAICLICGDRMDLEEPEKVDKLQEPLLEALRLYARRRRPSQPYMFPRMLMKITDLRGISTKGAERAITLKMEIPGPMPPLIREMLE
Sequence (P10276 whole entry): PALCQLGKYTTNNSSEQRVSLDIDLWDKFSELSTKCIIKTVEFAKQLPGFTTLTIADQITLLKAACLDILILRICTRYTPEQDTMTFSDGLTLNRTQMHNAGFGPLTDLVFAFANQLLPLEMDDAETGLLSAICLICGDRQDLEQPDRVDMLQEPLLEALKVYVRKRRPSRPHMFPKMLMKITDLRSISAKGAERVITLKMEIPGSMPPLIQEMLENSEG
Test: Competitive Assay
Conditions: pH 8; 4 °C
ASSAY_ENDPOINT: pKi
pKi is defined as minus the log10 of a concentration measured in mol/L.

CC1(C)C(=O)C(C)(C)c2cc(C(=O)Nc3ccc(C(=O)O)cc3)ccc21 = 9.00

From here, focus on the item given below.
Problem: Query: pKi; subject: "CC1(C)CC=C(c2cnc3ccccc3c2)c2cc(C(=O)Nc3ccc(C(=O)O)cc3)ccc21"
Solution: 9.00
